tested on: K-562 leukemia; assay: NCI-60 one-dose screen, 48 h (100 = growth as untreated, 0 = no growth, -100 = all killed); conditions: 10 µM unless noted
The panel holds about 83,000 compounds, 20% with a hit somewhere; the sample as a whole holds those more often.
Lab note - cut at 20% for growth: criterion met if strictly below, criterion not met if not.

Past entries and their recorded results:
molecule	group
COc1ccc(-c2cc(-c3cc(OC)ccc3O)[nH]c(=O)c2C#N)cc1	criterion not met
COc1ccc(OC)c(Nc2nc3nonc3nc2Nc2cccc(Br)c2)c1	criterion met
Cc1cc(-c2ccc(N(C)C)cc2)c2sc(=O)[nH]c2n1	criterion not met

(Q) For this molecule, is growth lower than 20%? CCn1c(Sc2nnc(Nc3ccccc3)s2)nc2c1c(=O)n(C)c(=O)n2C
(A) criterion not met

(Q) Dear colleague, could you confirm whether growth of N=C(N)c1ccc(-c2ccc(-c3ccc(Cl)c(Cl)c3)o2)cc1 falls below 20%? Thanks.
(A) criterion met

(Q) Here's an entry: O=C(O)c1ccc(CO)o1 . Is its growth below 20%?
(A) criterion not met

(Q) Hello, is growth of the following molecule strictly smaller than 20%? CNCCNc1nc2ccccc2c2c(=O)c3cc(F)ccc3oc12
(A) criterion not met

(Q) Bench note: check whether O=C(NCOC(O)C(Cl)(Cl)Cl)NCOC(O)C(Cl)(Cl)Cl (stereo not given) shows growth below 20%
(A) criterion not met

(Q) Confirm or reject: growth of CCOc1cccnc1/C=N/NC(N)=S lies strictly below 20%
(A) criterion not met

(Q) I'd appreciate it if you could check whether CO/C(=C1/NC(=O)C(Cc2ccc(O)c(Br)c2)N(C)C(=O)C(C)NC(=O)CCC/C=C(\C)CCC(C)OC1=O)c1ccccc1 (stereo not given) has growth smaller than 20%.
(A) criterion met

(Q) In plain terms, does COc1ccc(Oc2nc(Nc3ccc(N4CCCCC4)nc3)ncc2NC(=O)c2cc(OC)cc(OC)c2)cc1 come in under 20% for growth?
(A) criterion met

(Q) Hello, is growth of the following molecule strictly smaller than 20%? C=C1C(=O)O[C@H]2[C@H]1CC/C(COC(=O)/C=C\C(=O)NCc1ccc(Cn3c(=O)sn(CCCI)c3=O)cc1)=C\CC[C@@]1(C)O[C@@H]21
(A) criterion met

(Q) Please let me know if Cc1c(C)c2c(c(C)c1NC(=O)/C=C\C(=O)O)CCC(C)(CCCC(C)CCCC(C)CCCC(C)C)O2 (stereo not given) shows growth below 20%.
(A) criterion not met

(Q) Does O=C(/C=C/C12c3ccccc3C(c3ccccc31)C1C(=O)N(c3ccccc3)C(=O)C12)c1ccccc1 (stereo not given) have growth strictly under 20%?
(A) criterion met

(Q) Is it true that growth reported for COc1cc2c(cc1OC)-c1ccc3cc4c(cc3c1N(CCCN1CCCCC1)C2)OCO4 is less than 20%?
(A) criterion met

Hello, the source for this data is PubChem BioAssay (NCI), in case you need it.
